Source of measurements: ChEMBL document CHEMBL5104118

Biological target: Protein-glutamine gamma-glutamyltransferase (Homo sapiens) (UniProt P21980)
Sequence (whole entry): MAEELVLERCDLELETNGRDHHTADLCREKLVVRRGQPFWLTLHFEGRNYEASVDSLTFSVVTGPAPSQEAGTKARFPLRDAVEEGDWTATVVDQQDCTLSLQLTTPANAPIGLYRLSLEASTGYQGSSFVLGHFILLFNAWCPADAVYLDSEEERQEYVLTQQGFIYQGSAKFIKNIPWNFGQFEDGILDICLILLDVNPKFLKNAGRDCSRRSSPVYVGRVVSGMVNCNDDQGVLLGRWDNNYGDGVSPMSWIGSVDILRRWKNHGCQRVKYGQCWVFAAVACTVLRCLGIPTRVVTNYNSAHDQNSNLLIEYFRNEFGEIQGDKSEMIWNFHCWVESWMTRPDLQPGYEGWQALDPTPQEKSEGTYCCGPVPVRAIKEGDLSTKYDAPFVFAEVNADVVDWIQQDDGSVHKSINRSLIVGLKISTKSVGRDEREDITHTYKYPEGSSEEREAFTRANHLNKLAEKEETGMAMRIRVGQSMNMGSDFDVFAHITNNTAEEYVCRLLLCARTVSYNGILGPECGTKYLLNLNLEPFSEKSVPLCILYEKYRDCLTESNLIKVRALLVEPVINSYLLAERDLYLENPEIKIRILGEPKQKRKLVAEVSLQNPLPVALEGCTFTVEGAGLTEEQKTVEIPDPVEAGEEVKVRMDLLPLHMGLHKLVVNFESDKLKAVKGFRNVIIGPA
Assay: Inhibition of recombinant human TG2 expressed in Escherichia coli assessed as Kinact/Ki ratio using Cbz-Glu(gamma-p-nitrophenyl ester)Gly (AL5) as substrate by colorimetric assay
Give measured Ratio for each item. Keep answers brief.

As a guide, the following entries are already answered.
C=CC(=O)NCCC(=O)N1CCN(C(=O)c2cccc3ccccc23)CC1 = 2.4 10^3/M/min
C=CC(=O)NCCCCCC(=O)N1CCN(C(=O)C23CC4CC(CC(C4)C2)C3)CC1 = 9.5 10^3/M/min
C=CC(=O)NCC(=O)N1CCN(C(=O)C23CC4CC(CC(C4)C2)C3)CC1 = 412 10^3/M/min

Next compound, please.
Specify the recorded Ratio for C=CC(=O)NCCCCCC(=O)N1CCN(C(=O)c2cccc3ccccc23)CC1 , system: Protein-glutamine gamma-glutamyltransferase (Homo sapiens) (UniProt P21980).
4.2 10^3/M/min

---

Molecular target: Protein-glutamine gamma-glutamyltransferase (Homo sapiens) (UniProt P21980)
Experiment: Inhibition of recombinant human TG2 expressed in Escherichia coli assessed as Kinact/Ki ratio using Cbz-Glu(gamma-p-nitrophenyl ester)Gly (AL5) as substrate by colorimetric assay
Give measured Ratio for each item. Keep answers brief.

As a guide, the following entries are already answered.
C=CC(=O)NCCCC(=O)N1CCN(S(=O)(=O)c2cccc3c(N(C)C)cccc23)CC1 = 7.3 10^3/M/min
C=CC(=O)NCC(=O)N1CCN(S(=O)(=O)c2cccc3ccccc23)CC1 = 108 10^3/M/min
C=CC(=O)NCCCCC(=O)N1CCN(S(=O)(=O)c2cccc3c(N(C)C)cccc23)CC1 = 13.1 10^3/M/min
C=CC(=O)NCCCCCC(=O)N1CCN(S(=O)(=O)c2cccc3c(N(C)C)cccc23)CC1 = 8.6 10^3/M/min
C=CC(=O)NCCCCC(=O)N1CCN(C(=O)C23CC4CC(CC(C4)C2)C3)CC1 = 41.9 10^3/M/min

For each of the items listed, what is its Ratio?
1. C=CC(=O)NCC(=O)N1CCN(S(=O)(=O)c2cccc3c(N(C)C)cccc23)CC1
2. C=CC(=O)NCC(=O)N1CCN(C(=O)c2cccc3ccccc23)CC1
3. C=CC(=O)NCCC(=O)N1CCN(S(=O)(=O)c2cccc3c(N(C)C)cccc23)CC1
4. C=CC(=O)NCCCCC(=O)N1CCN(C(=O)c2cccc3ccccc23)CC1

1. 1510 10^3/M/min
2. 27.5 10^3/M/min
3. 3.9 10^3/M/min
4. 3.1 10^3/M/min

Give reported Ratio value for C=CC(=O)NCCCC(=O)N1CCN(C(=O)c2cccc3ccccc23)CC1
3.3 10^3/M/min
